As shown below, each of these sequences has a reported binding signal (PBM E-score (-0.5 to 0.5)) value.
Target: ztf-29 (Y66D12A.12) (Caenorhabditis elegans) (UniProt Q95Q03)
Sequence: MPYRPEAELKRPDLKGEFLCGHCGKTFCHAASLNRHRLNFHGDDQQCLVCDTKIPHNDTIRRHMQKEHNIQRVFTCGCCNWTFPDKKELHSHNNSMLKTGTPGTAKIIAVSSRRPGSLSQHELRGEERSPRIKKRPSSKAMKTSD
Answer field: number only, no words.

Polymer sequence	Observed measurement
AAGCTTCT (double strand) [8-mer AAGCTTCT]	0.49
AAGCTTCA (double strand) [8-mer AAGCTTCA]	0.489
GCTTAAGC (double strand) [8-mer GCTTAAGC]	0.491
AAGCTTAT (double strand) [8-mer AAGCTTAT]	0.488
AAGCTTAC (double strand) [8-mer AAGCTTAC]	0.485
AAAGCTTA (double strand) [8-mer AAAGCTTA]	0.485

Please look at this sequence and report its binding signal (PBM E-score (-0.5 to 0.5)): TAAGCTTA (double strand) [8-mer TAAGCTTA] 0.496

Give the measured binding signal (PBM E-score (-0.5 to 0.5)) for AAAAGCTT (double strand) [8-mer AAAAGCTT] 0.492

Give binding signal (PBM E-score (-0.5 to 0.5)) for the following sequence: GAAGCTTC (double strand) [8-mer GAAGCTTC] 0.494

Identify measured binding signal (PBM E-score (-0.5 to 0.5)) associated with AAGCTTAA (double strand) [8-mer AAGCTTAA] 0.494

Return binding signal (PBM E-score (-0.5 to 0.5)) for the following sequence: GAAGCTTA (double strand) [8-mer GAAGCTTA] 0.485

----------
Target: T22H9.4 (T22H9.4) (Caenorhabditis elegans) (UniProt Q9TXN8)
Sequence: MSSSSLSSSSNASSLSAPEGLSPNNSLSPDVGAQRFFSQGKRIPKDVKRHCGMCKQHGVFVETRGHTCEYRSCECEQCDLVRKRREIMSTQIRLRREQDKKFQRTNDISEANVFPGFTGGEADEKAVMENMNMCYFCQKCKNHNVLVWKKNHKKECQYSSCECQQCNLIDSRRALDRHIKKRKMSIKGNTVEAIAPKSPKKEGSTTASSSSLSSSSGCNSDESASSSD
Measured parameter: binding signal (PBM E-score (-0.5 to 0.5))
Answer field: number only, no words.

Note down binding signal (PBM E-score (-0.5 to 0.5)) recorded for TGTCGAAA (double strand) [8-mer TGTCGAAA] 0.495

Identify the reported binding signal (PBM E-score (-0.5 to 0.5)) for the following entry. GTTAAAAA (double strand) [8-mer GTTAAAAA] 0.494

Please report the measured binding signal (PBM E-score (-0.5 to 0.5)) for ATTGCAAC (double strand) [8-mer ATTGCAAC] 0.493

Give a short answer stating reported binding signal (PBM E-score (-0.5 to 0.5)) for TGTTAAAA (double strand) [8-mer TGTTAAAA] . 0.496

Provide only the value of recorded binding signal (PBM E-score (-0.5 to 0.5)) for ATTTCAAC (double strand) [8-mer ATTTCAAC] 0.497

Give the reported value of binding signal (PBM E-score (-0.5 to 0.5)) for this record: GTTGCAAC (double strand) [8-mer GTTGCAAC] 0.489

----------
A set of sequences tested on lin-48 (F34D10.5) (Caenorhabditis elegans), with measured binding signal (PBM E-score (-0.5 to 0.5)):
Give the figure only, with no unit attached.

Example results:
Polymer sequence	Test target	Observed measurement
TAACGGGA (double strand) [8-mer TAACGGGA]	lin-48 (F34D10.5) (Caenorhabditis elegans)	0.49
CCGTTATA (double strand) [8-mer CCGTTATA]	lin-48 (F34D10.5) (Caenorhabditis elegans)	0.494
GACCGTTA (double strand) [8-mer GACCGTTA]	lin-48 (F34D10.5) (Caenorhabditis elegans)	0.496
GTAACGGA (double strand) [8-mer GTAACGGA]	lin-48 (F34D10.5) (Caenorhabditis elegans)	0.485
AGTAACGG (double strand) [8-mer AGTAACGG]	lin-48 (F34D10.5) (Caenorhabditis elegans)	0.487
ATAACGGG (double strand) [8-mer ATAACGGG]	lin-48 (F34D10.5) (Caenorhabditis elegans)	0.494
ATAACGGA (double strand) [8-mer ATAACGGA]	lin-48 (F34D10.5) (Caenorhabditis elegans)	0.485
CCGTTATC (double strand) [8-mer CCGTTATC]	lin-48 (F34D10.5) (Caenorhabditis elegans)	0.49

Now turn to the next sequence.
Look up and report binding signal (PBM E-score (-0.5 to 0.5)), with lin-48 (F34D10.5) (Caenorhabditis elegans) as system, for ACCGTTAG (double strand) [8-mer ACCGTTAG] 0.489

----------
molecular target: gei-3 (T22H6.6) (Caenorhabditis elegans) (UniProt Q0G833)
Sequence (Q0G833 entry or part of it): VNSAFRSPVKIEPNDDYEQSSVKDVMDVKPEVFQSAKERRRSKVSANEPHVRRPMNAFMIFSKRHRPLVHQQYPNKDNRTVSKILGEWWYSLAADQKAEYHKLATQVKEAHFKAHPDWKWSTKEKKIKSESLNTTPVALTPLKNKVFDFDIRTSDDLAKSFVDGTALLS
Measured parameter: binding signal (PBM E-score (-0.5 to 0.5))
Respond with the number and no other words.

Please report binding signal (PBM E-score (-0.5 to 0.5)) for the following sequence: TGAATTAA (double strand) [8-mer TGAATTAA] 0.474

Report measured binding signal (PBM E-score (-0.5 to 0.5)); entry is TCAATGAA (double strand) [8-mer TCAATGAA] 0.485

Please look at this sequence and report its binding signal (PBM E-score (-0.5 to 0.5)): ATCAATGA (double strand) [8-mer ATCAATGA] 0.485

Output binding signal (PBM E-score (-0.5 to 0.5)) of AATGAATG (double strand) [8-mer AATGAATG] 0.481

----------
# key: entry, value: binding signal (PBM E-score (-0.5 to 0.5))
Target: ztf-19 (T27B1.2) (Caenorhabditis elegans) (UniProt Q22829)
Sequence: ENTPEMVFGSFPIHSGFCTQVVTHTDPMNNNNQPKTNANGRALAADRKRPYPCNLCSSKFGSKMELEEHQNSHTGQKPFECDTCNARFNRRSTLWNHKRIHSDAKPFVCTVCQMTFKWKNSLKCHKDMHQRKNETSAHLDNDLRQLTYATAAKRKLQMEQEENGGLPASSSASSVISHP
Just the number, please, no unit after it.

Polymer sequence	Observed measurement
GTTTAAAC (double strand) [8-mer GTTTAAAC]	0.494

# return binding signal (PBM E-score (-0.5 to 0.5)) of CATTACAC (double strand) [8-mer CATTACAC] (system: ztf-19 (T27B1.2) (Caenorhabditis elegans) (UniProt Q22829)) 0.494

Identify measured binding signal (PBM E-score (-0.5 to 0.5)) obtained with ztf-19 (T27B1.2) (Caenorhabditis elegans) (UniProt Q22829) for GTGTAACA (double strand) [8-mer GTGTAACA] . 0.494

Please report binding signal (PBM E-score (-0.5 to 0.5)) with ztf-19 (T27B1.2) (Caenorhabditis elegans) (UniProt Q22829) for item GTGTAATA (double strand) [8-mer GTGTAATA] . 0.497

Look up ztf-19 (T27B1.2) (Caenorhabditis elegans) (UniProt Q22829) data: binding signal (PBM E-score (-0.5 to 0.5)) of AGTTTAAA (double strand) [8-mer AGTTTAAA] , then report it. 0.495

----------
Reported binding signal (PBM E-score (-0.5 to 0.5)) values follow for various sequences
Target: skn-1 (T19E7.2) (Caenorhabditis elegans)
Sequence: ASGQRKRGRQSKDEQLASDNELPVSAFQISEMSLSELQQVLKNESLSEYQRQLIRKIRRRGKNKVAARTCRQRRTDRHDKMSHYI
# answer = number (no unit)

// worked examples, binding signal (PBM E-score (-0.5 to 0.5)) included
Polymer sequence	Observed measurement
TGATGACA (double strand) [8-mer TGATGACA]	0.495
AATGTCAT (double strand) [8-mer AATGTCAT]	0.487
GATGACAA (double strand) [8-mer GATGACAA]	0.498

Please indicate binding signal (PBM E-score (-0.5 to 0.5)) recorded for GGATGACA (double strand) [8-mer GGATGACA] 0.489

Answer with reported binding signal (PBM E-score (-0.5 to 0.5)) of GTCATCAC (double strand) [8-mer GTCATCAC] 0.492

Recall and state the measured binding signal (PBM E-score (-0.5 to 0.5)) for GATGATAA (double strand) [8-mer GATGATAA] . 0.488

----------
Target: die-1 (C18D1.1) (Caenorhabditis elegans)
Sequence: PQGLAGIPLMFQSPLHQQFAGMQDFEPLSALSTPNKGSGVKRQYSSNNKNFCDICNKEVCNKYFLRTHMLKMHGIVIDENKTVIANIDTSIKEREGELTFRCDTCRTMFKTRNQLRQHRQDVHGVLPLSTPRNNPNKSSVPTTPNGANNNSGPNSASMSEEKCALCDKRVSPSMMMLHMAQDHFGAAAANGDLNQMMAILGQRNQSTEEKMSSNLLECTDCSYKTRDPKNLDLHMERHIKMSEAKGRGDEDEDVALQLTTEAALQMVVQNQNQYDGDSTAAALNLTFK
Measured parameter: binding signal (PBM E-score (-0.5 to 0.5))

Polymer sequence	Observed measurement
ATTTAAAC (double strand) [8-mer ATTTAAAC]	0.484
ATTTAAAT (double strand) [8-mer ATTTAAAT]	0.477
GGTTTAAA (double strand) [8-mer GGTTTAAA]	0.484
GATTTAAA (double strand) [8-mer GATTTAAA]	0.477
GTTTTAAA (double strand) [8-mer GTTTTAAA]	0.478

Indicate the recorded binding signal (PBM E-score (-0.5 to 0.5)) value for this sequence: AATTTAAA (double strand) [8-mer AATTTAAA] 0.497

Tell me measured binding signal (PBM E-score (-0.5 to 0.5)) for TTTTAAAA (double strand) [8-mer TTTTAAAA] please. 0.494

Consider the sequence GTTTAAAA (double strand) [8-mer GTTTAAAA] and give its recorded binding signal (PBM E-score (-0.5 to 0.5)). 0.471
